- protocol: Primary qHTS for inhibitors of nuclear receptor binding SET domain protein 2 (NSD2) in an RCH-ACV wild type WT cells (2C) (AID 1645877); further: nearly all actives have a fitted effect of over 70% in size; further: potency means the concentration at half of the fitted maximal effect
- test parameters: RCH-ACV (leukaemia line) NSD2 WT (2C) viability, CellTiter-Glo, 72 h; series mostly up to 44.9 µM
- Source text: Assay Provider: Jonathan D. Licht, MD University of Florida College of Medicine, Gainesville, FL Mutations in epigenetic regulators are common in relapsed pediatric acute lymphoblastic leukemia (ALL). Here, we uncovered the mechanism underlying the relapse of ALL driven by an activating mutation of the NSD2 histone methyltransferase (p.E1099K). […] Correction of this mutation restored glucocorticoid sensitivity. […]
Results filed as inconclusive are left out. Active and inactive are the calls of the source. The call rests on the fitted dose curve; in most records, active means well fitted inhibition curve with a large enough effect; inconclusive means small, poorly fitted or top-dose-only effect; inactive means no such curve, though single readings can be large or run the other way.
measurement type: Potency

# compound, Potency
measured = [
    ("COC1CCC(N(C(=O)C2CCC(C)CC2)c2cc(C3=CCCCC3)sc2C(=O)O)CC1 (configuration not stated)", "inactive"),
    ("Cc1cccc(C)c1OCC(C)N (configuration not stated)", "inactive"),
    ("COc1cccc2c1CCCC2CCCN1CCN(C2CCCCC2)CC1 (configuration not stated)", "20.9 µM (active)"),
    ("CC(=O)CCCCn1c(=O)c2c(ncn2C)n(C)c1=O", "inactive"),
    ("CC1(C)Cc2c(sc(NC(=S)NC(=O)c3ccccc3)c2C(=O)O)CO1", "inactive"),
    ("O=C(Nc1c(Cl)cncc1Cl)c1ccc(OC(F)F)c(OCC2CC2)c1", "inactive"),
    ("O=C(O)Cc1cccc2ccccc12", "inactive"),
    ("COc1ccc(-n2c(C)c([N+](=O)[O-])c3ccc(O)cc32)cc1", "inactive"),
]

## Task Please indicate Potency recorded for `O=c1cc(-c2ccccc2)oc2cc(O)c(O)c(O)c12`
## Result 23.5 µM (active)

## Task Please indicate Potency recorded for CC(C)NCC(O)COc1cccc2[nH]ccc12 (configuration not stated)
## Result inactive

## Task Please indicate Potency recorded for `CCOC(CN1C(=O)[C@](CC(=O)Nc2ccc(C)cc2)(NC(=O)Nc2ccc(C)cc2)c2ccccc21)OCC`
## Result 6.61 µM (active)

## Task Please indicate Potency recorded for `CCN(CC)C(=O)c1ccc(O)c(OC)c1`
## Result inactive

----------
- protocol: Quantitative High-Throughput drug screen in 47 multiple myeloma cell lines against the NCATS MIPE library collection: OCIMY7_PLB cell viability assay (AID 1918987); further: nearly all actives have a fitted effect of over 65% in size
- test parameters: OCI-MY7 myeloma viability, CellTiter-Glo ATP, 48 h
Results filed as inconclusive are left out. Activity calls are given as the source filed them. The call rests on the fitted dose curve; in most records, active means well fitted cell-killing curve with a large enough effect; inconclusive means small, poorly fitted or top-dose-only effect, or effect the other way; inactive means no such curve, though single readings can be large or run the other way.
Pick from active, inactive when you respond.

Some solved entries appear below for comparison.
# molecule, group label
data = [
    ("O=c1c(-c2ccc(O)cc2)coc2cc(O)ccc12", "inactive"),
    ("COCCOC(=O)C1=C(C)NC2=C(C(=O)CC(c3ccccc3OC)C2)C1c1cccc(O)c1 (stereo not given)", "active"),
    ("COc1ccc(Cc2nccc3cc(OC)c(OC)cc23)cc1OC", "active"),
    ("O=C(O)C=Cc1ccc(O)c(O)c1", "active"),
    ("COc1ccc(-c2oc3c(CC=C(C)C)c(OC4O[C@H](CO)[C@@H](O)[C@H](O)[C@@H]4O)cc(O)c3c(=O)c2OC2O[C@@H](C)[C@H](O)[C@@H](O)[C@@H]2O)cc1 (stereo not given in full)", "active"),
]

## Task Short answer needed: outcome of this test for `CCc1ccc(OCc2ccccc2C(=O)Nc2ccc3nc(C)cc(N)c3c2)cc1` ?
## Result active

## Task Short answer needed: outcome of this test for `O=C1NC(=O)C(=Cc2ccc3nccnc3c2)S1` ?
## Result active

## Task Short answer needed: outcome of this test for `CO[C@H]1C[C@@H]2CC[C@@H](C)[C@@](O)(O2)C(=O)C(=O)N2CCCC[C@@H]2C(=O)O[C@H]([C@H](C)C[C@@H]2CC[C@H](OP(C)(C)=O)[C@H](OC)C2)CC(=O)[C@H](C)C=C(C)[C@@H](O)[C@@H](OC)C(=O)[C@H](C)C[C@H](C)C=CC=CC=C1C` ?
## Result active

## Task Short answer needed: outcome of this test for `NS(=O)(=O)c1ccc(NC2=CC(=O)c3ccccc3C2=O)cc1` ?
## Result active

## Task Short answer needed: outcome of this test for `CC(=NNC(=S)N1CCC1)c1ccccn1` ?
## Result inactive
